Numbers sourced from PubChem BioAssay (NCI).

Test system: 786-0 renal
ASSAY DETAILS: NCI-60 one-dose screen, 48 h (100 = growth as untreated, 0 = no growth, -100 = all killed)
PARTICULARS: 10 µM unless noted
About 83,000 compounds went through this panel and 20% of them were active in at least one assay; those are over-represented in the sample as a whole. Calls of active or inactive are those of the source. The calls were made as follows: active = growth percent below 10; inactive = the rest.
EXPERIMENTAL READOUT: growth

See these solved cases before continuing.
Cc1cc(O[C@@H]2O[C@@H](C)[C@H](O)[C@@H](O)[C@H]2O)c2c3c(c(O[C@@H]4O[C@@H](C)[C@H](O)[C@@H](O)[C@H]4O)cc2c1)C(=O)c1c(O)cccc1C3=O : 24.4% (inactive)
CCc1cccc(-c2ccccc2)c1 : 98.8% (inactive)
CN1CCN(CC(O)COc2c(Br)c(Br)c(Br)c3c2OC(C)(C)C3)CC1 (centres undefined) : 11.8% (inactive)

Would you kindly look at the next entry?
Hey, 786-0 renal data for O=C(Nc1ccc(-n2ccc3c(NC(=O)c4ccccc4)ncnc32)cc1)Nc1ccc(Cl)c(Cl)c1 : growth came out at 26.1% (inactive)

* * *

Test system: SW-620 colon
ASSAY DETAILS: NCI-60 one-dose screen, 48 h (100 = growth as untreated, 0 = no growth, -100 = all killed)
PARTICULARS: 10 µM unless noted
The panel holds about 83,000 compounds, 20% with a hit somewhere; the sample as a whole holds those more often. The source made the active and inactive calls. Rule for the calls: active = growth percent below 10; inactive = the rest.
Measured growth accompanies every entry in the list below.

Nc1ncc(-c2ccc3ncnc(Nc4cncc(Cl)c4)c3c2)cn1 : 95.8% (inactive)

We next turn to a different compound, shown below.
Measured growth of CCOc1ccccc1C(=O)N1CCN(c2cc(Cl)cc(Cl)c2)CC1 : 22.9% (inactive)

* * *

Test system: SNB-75 CNS
ASSAY DETAILS: NCI-60 one-dose screen, 48 h
PARTICULARS: 10 µM unless noted
About 83,000 compounds went through this panel and 20% of them were active in at least one assay; those are over-represented in the sample as a whole. The source made the active and inactive calls. The calls were made as follows: active = growth percent below 10; inactive = the rest.
Hi! Could you answer with just one of these? active, inactive

Worked cases, answers included:
COC(OC)C1(c2ccccc2)NC(=O)NC1=O (stereo not given) : inactive
CCN(CC)CCNCC(O)Cc1ccc(OC)cc1 (stereo not given) : inactive
CCOc1ccc(NC(=O)Nc2cc(C(C)C)ccc2C)cc1 : inactive

Field: next compound
Recorded test call requested for COc1ccc(-n2c(-c3ccc(NC(=O)CCCl)cc3)nnc2-c2cc(OC)c(OC)c(OC)c2)cc1 inactive

* * *

Here the recorded growth is given for each entry.
Test system: SR leukemia
ASSAY DETAILS: NCI-60 one-dose screen, 48 h (100 = growth as untreated, 0 = no growth, -100 = all killed)
PARTICULARS: 10 µM unless noted
The panel holds about 83,000 compounds, 20% with a hit somewhere; the sample as a whole holds those more often.
Lab book: enter the figure in %, no units written.

Previously resolved entries follow.
Cc1ccc(=O)n(-c2ccc(Br)cc2F)c1 : 108
COc1cc(-c2nc3ccccc3s2)ccc1OCc1nc2n(n1)S(=O)(=O)c1ccccc1N2c1ccccc1 : 23.7
C=CCOc1ccc(/C(Cl)=N/N=C(\Cl)c2cc(OC)c(OC)c(OC)c2)cc1 : 17
C[C@]12O[C@H]1[C@H](O)c1c(cc(O)c3c1C(=O)c1cccc(O)c1-3)C2=O : 93.6
CC(=O)c1cc2c(N)c(C(=O)Nc3cccc(Cl)c3)sc2nc1C : 66.1
CC(Cl)(CCl)CS(=O)(=O)c1ccc(Cl)cc1 (stereo not given) : 96.2
CCN(CC)CC(=O)Nc1c(C)cccc1C : 98.3
O=C(Nc1ccccc1Cl)c1c[nH]c(=O)c(-c2ccc(N3CCCOC4(CC4)C3)cc2)c1 : 39.6

Entry COc1cc(Br)c(-c2nc(-c3ccccc3)c(-c3ccccc3)n2Cc2ccccc2)cc1OC , growth reported as 47.3

For record O=C(Nc1ccc(-n2cc(-c3ccncc3)c(-c3ccc(O)c(Cl)c3)n2)cc1)Nc1cccc(Cl)c1Cl the listed growth is 74
